Experiment: pharmacokinetics in subjects undergoing noncardiac surgical procedures
Assay type: in vivo, human
Conditions: human, whole blood; noncardiac surgery, 0.9 g PFC/kg; read-out: T1/2 (elimination half-life) (converted)
outcome measure: half-life (h)
Please reply with the bare figure in h and do not write the unit itself.

{"columns": ["molecule", "outcome measure", "readout units", "result value"],
 "data": [
  ["FC(F)(F)C(F)(F)C(F)(F)C(F)(F)C(F)(F)C(F)(F)C(F)(F)C(F)(F)C(F)(F)C(F)(F)Br [PFDB, perfluorodecyl bromide]", "half-life", "h", 2.73]
]}

Proceed to the following item.
Q: Look at this molecule and give its reported half-life. FC(F)(F)C(F)(F)C(F)(F)C(F)(F)C(F)(F)C(F)(F)C(F)(F)C(F)(F)Br [PFOB, perfluorooctyl bromide]
A: 2.36
